Biological target: T-type calcium channel α1H (Cav3.2) (Homo sapiens)
Construct: expressed in transfected cells; host or cells: Xenopus laevis unfertilized oocytes injected with cRNA (pGEM-HEA linearised with AflII, T7 transcription)
Sequence (O95180 whole entry): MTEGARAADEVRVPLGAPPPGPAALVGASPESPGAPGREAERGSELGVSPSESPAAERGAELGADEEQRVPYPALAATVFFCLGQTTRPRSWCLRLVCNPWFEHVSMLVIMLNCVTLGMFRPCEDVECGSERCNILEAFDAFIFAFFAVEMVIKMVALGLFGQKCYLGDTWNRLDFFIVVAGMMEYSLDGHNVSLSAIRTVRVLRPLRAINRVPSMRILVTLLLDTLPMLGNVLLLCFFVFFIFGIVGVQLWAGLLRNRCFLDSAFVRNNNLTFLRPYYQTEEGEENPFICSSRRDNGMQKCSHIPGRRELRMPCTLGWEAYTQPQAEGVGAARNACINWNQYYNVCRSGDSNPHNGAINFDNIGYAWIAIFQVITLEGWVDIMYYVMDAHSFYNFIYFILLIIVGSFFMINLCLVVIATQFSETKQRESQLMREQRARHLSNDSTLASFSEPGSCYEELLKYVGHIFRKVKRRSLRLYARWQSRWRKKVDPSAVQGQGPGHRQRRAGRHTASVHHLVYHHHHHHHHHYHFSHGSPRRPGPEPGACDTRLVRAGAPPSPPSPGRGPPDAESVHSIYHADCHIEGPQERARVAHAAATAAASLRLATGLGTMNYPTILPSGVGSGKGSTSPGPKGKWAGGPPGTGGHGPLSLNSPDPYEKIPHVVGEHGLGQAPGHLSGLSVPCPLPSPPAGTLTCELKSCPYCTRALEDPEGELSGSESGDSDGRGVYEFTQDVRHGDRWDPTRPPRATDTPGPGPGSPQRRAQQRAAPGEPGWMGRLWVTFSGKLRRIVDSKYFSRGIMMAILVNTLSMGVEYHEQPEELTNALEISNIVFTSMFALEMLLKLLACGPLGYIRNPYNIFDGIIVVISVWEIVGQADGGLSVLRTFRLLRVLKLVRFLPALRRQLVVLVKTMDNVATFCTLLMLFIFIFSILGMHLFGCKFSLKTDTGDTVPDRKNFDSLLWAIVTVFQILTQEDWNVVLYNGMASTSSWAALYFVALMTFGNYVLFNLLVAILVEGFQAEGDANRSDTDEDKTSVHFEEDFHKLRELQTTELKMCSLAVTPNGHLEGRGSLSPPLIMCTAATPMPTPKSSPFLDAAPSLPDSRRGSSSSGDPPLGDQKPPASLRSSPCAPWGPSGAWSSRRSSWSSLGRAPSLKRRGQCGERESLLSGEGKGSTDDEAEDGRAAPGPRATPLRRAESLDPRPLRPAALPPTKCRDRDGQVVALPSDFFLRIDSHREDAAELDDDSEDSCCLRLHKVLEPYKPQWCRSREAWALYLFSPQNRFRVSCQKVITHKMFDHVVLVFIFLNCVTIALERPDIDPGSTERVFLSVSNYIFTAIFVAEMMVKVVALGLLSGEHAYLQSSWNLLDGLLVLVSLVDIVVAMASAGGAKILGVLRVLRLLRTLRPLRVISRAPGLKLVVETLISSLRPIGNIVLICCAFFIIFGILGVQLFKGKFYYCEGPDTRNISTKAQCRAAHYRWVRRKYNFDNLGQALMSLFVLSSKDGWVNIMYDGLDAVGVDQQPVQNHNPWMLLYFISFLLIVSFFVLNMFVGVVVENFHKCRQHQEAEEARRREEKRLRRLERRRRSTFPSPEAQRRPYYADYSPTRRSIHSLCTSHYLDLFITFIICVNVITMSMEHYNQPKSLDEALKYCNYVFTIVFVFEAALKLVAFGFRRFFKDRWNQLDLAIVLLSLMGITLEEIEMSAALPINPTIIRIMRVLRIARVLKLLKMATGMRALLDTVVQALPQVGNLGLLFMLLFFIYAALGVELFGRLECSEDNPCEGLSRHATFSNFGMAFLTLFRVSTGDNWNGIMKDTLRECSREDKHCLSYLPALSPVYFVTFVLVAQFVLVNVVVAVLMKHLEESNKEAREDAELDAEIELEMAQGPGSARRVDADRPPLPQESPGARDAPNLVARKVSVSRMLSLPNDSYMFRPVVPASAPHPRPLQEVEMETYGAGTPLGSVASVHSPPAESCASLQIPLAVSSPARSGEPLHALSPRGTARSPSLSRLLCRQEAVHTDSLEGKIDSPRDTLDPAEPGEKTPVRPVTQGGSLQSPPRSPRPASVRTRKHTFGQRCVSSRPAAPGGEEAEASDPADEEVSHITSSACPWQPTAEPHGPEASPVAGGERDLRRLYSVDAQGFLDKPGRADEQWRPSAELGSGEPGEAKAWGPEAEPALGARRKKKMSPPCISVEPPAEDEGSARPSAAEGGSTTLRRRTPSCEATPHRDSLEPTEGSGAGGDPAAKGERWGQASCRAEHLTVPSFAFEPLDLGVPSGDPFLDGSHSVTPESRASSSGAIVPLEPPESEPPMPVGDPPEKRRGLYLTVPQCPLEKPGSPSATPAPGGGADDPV
Assay: Two-electrode voltage clamp on Xenopus unfertilized oocytes expressing α1H T-type calcium channel
Assay type: cell-based
Settings: test potential -20 mV from -90 mV, read-out: inhibitory effect (blocking percentage), Xenopus oocyte (α1H) at 100 μM
Could you label it Condition met if measured inhibition at 100 µM is 40% or higher, and Condition not met otherwise?

A selection of reference data follows.
O=C(CC1c2ccccc2N=C(c2ccccc2)N1c1ccccc1)NCc1ccccc1 (stereo not shown) = Condition not met
O=C(CC1c2ccccc2N=C(N2CCOCC2)N1c1ccccc1)OCc1ccccc1 (stereo not shown) = Condition not met

Q) Textbook exercise: given the entry O=C(CC1c2ccccc2N=C(c2ccccc2)N1c1ccccc1)OCc1ccccc1 (stereo not shown) , state whether its inhibition at 100 µM is greater than or equal to 40%.
A) Condition not met

Q) Textbook exercise: given the entry Cc1ccc(S(=O)(=O)Nc2ccc(CNC(=O)CC3c4ccccc4N=C(N4CCCCC4)N3c3ccccc3)cc2)cc1 (stereo not shown) , state whether its inhibition at 100 µM is greater than or equal to 40%.
A) Condition met

---

Target: α1G T-type calcium channel (Rattus norvegicus, UniProt O54898)
Construct: Perez-Reyes, University of Virginia
Sequence (O54898 whole entry): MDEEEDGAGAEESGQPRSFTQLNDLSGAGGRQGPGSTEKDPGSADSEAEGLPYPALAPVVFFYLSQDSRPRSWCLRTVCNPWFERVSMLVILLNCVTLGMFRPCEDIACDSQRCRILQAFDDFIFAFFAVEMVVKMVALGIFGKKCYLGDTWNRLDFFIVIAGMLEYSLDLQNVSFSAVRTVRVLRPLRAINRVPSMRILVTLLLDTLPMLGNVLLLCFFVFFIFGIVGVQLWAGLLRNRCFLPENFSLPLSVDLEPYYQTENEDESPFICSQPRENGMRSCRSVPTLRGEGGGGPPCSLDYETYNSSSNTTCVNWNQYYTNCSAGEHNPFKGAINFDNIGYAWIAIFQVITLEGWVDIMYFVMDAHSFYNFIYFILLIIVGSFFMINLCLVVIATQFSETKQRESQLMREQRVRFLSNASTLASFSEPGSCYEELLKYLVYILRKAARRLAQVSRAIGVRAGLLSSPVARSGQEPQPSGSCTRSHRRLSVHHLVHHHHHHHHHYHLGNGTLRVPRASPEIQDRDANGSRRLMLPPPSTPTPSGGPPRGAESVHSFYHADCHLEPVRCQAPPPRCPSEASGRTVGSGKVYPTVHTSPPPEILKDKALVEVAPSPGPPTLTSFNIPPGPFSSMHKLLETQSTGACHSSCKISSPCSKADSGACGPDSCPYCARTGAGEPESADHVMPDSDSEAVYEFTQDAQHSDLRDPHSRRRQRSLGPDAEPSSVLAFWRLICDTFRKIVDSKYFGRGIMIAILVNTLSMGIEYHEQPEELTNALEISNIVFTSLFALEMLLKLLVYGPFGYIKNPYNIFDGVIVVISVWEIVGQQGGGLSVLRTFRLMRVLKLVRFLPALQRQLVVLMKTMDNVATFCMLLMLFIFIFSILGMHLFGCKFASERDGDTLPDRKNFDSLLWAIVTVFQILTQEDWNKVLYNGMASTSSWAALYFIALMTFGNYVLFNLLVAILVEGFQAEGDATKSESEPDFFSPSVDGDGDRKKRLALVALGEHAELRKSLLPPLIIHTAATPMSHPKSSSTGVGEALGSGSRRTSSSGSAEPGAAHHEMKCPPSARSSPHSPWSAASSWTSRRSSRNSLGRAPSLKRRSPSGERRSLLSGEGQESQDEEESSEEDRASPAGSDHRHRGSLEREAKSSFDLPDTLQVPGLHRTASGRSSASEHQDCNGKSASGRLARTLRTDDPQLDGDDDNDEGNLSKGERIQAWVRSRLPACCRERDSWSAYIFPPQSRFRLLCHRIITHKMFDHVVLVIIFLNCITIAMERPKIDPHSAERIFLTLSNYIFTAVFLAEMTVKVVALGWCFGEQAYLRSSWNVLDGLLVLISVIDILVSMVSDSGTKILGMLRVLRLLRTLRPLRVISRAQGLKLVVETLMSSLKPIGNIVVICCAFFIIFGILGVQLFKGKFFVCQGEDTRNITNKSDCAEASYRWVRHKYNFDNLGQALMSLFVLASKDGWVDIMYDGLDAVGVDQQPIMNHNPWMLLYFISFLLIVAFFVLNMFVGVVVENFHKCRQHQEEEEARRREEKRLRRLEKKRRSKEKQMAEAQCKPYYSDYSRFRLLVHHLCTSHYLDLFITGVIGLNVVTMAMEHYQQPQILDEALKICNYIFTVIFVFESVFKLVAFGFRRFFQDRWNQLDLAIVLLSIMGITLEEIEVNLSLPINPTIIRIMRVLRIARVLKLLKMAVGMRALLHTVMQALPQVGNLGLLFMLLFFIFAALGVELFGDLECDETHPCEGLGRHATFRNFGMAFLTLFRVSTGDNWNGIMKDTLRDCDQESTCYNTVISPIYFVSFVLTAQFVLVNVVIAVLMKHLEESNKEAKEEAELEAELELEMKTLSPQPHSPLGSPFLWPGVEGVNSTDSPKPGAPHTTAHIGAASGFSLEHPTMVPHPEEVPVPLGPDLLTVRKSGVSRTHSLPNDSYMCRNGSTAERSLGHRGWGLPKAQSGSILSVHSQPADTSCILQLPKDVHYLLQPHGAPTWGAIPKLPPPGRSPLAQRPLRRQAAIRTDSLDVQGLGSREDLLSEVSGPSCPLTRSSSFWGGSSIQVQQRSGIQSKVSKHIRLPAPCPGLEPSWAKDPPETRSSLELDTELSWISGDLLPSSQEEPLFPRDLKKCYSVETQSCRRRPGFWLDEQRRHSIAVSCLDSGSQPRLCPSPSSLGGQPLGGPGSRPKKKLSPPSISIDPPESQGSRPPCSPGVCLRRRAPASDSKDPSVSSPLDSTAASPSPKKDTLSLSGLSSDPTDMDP
Experiment: Whole cell patch clamp on HEK 293 cells expressing α1G T-type calcium channel
Conditions: HEK 293 cells expressing α1G; read-out: IC50, HEK293 cells (α1G)
Note to self: use MET only for IC50 readings below 10000 nM; a reading exactly at 10000 nM still gets NOT MET.

A selection of reference data follows.
O=C(CC1c2ccccc2N=C(N2CCCCC2)N1c1ccccc1)NCc1ccc(NS(=O)(=O)c2ccc(F)cc2)cc1 (stereo not shown) [KYS05042] = MET
Cc1ccc(S(=O)(=O)Nc2ccc(CNC(=O)CC3c4ccccc4N=C(N4CCCCC4)N3c3ccccc3)cc2)cc1 (stereo not shown) [KYS05041] = MET

Q) Below 10000 nM on IC50? Entry CN1CCN(C2=Nc3ccccc3C(CC(=O)NCc3ccccc3)N2c2ccccc2)CC1 (stereo not shown) [KYS05028]
A) NOT MET

Q) Below 10000 nM on IC50? Entry O=C(CC1c2ccccc2N=C(N2CCCCC2)N1c1ccccc1)NCc1ccc([N+](=O)[O-])cc1 (stereo not shown) [KYS05034]
A) MET

Q) Below 10000 nM on IC50? Entry Nc1ccc(CNC(=O)CC2c3ccccc3N=C(N3CCCCC3)N2c2ccccc2)cc1 (stereo not shown) [Compound 05040]
A) NOT MET

Q) Below 10000 nM on IC50? Entry O=C(CC1c2ccccc2N=C(N2CCOCC2)N1c1ccccc1)NCc1ccccc1 (stereo not shown) [KYS05026]
A) NOT MET

Q) Below 10000 nM on IC50? Entry O=C(CC1c2ccccc2N=C(N2CCCCC2)N1c1ccccc1)NCc1ccccc1 (stereo not shown) [KYS05001]
A) MET

---

Biological target: α1G T-type calcium channel (Rattus norvegicus, UniProt O54898)
Construct: expressed in transfected cells; Perez-Reyes, University of Virginia
Test: Whole cell patch clamp on HEK 293 cells expressing α1G T-type calcium channel
Type: cell-based
Conditions: HEK293; 10 μM; HEK 293 cells expressing α1G; 30 to 60 sec treatment; read-out: inhibitory effect on peak current, HEK293 cells (α1G) at 10 μM
// reported inhibition at 10 µM for each item listed
# unit: % | format: bare number

Q) Name the recorded inhibition at 10 µM for O=C(CC1c2ccccc2N=C(N2CCCCC2)N1c1ccccc1)NCc1ccc(NS(=O)(=O)c2ccc(F)cc2)cc1 (centres unmarked) .
A) 89

Q) Name the recorded inhibition at 10 µM for Nc1ccc(CNC(=O)CC2c3ccccc3N=C(N3CCCCC3)N2c2ccccc2)cc1 (centres unmarked) .
A) 43.5

Q) Name the recorded inhibition at 10 µM for O=C(CC1c2ccccc2N=C(N2CCCCC2)N1c1ccccc1)NCc1ccccc1 (centres unmarked) .
A) 90.1

Q) Name the recorded inhibition at 10 µM for O=C(CC1c2ccccc2N=C(N2CCOCC2)N1c1ccccc1)NCc1ccccc1 (centres unmarked) .
A) 40.5

Q) Name the recorded inhibition at 10 µM for Cc1ccc(S(=O)(=O)Nc2ccc(CNC(=O)CC3c4ccccc4N=C(N4CCCCC4)N3c3ccccc3)cc2)cc1 (centres unmarked) .
A) 89.9
